system: NCI-H522 lung; test: NCI tumour cell line growth inhibition, 48 h
resultType: log10 of TGI (log10 of the value in µM)
# log10 transformed; quantity=TGI; unit=µM

Example entries begin here.
>>> resultnumber("O=C1NN=C(c2ccc(Cl)cc2)CC1C1C(=O)N(c2ccccc2)N=C1c1ccccc1 (stereo not drawn)")
1.81
>>> resultnumber("COc1ccc(CN2CCc3c(Cl)nc(N)nc3C2=O)c(OC)c1")
1.49
>>> resultnumber("O=C(CC(O)(c1ccccc1)c1ccc(Cl)cc1)NC(=O)c1ccccc1O (stereo not drawn)")
1.17
>>> resultnumber("COc1cc(/C=C2\\C[C@H]3[C@@H]4CC=C5C[C@@H](N6CCCC6)CC[C@]5(C)[C@H]4CC[C@]3(C)[C@H]2O)cc(OC)c1OC")
1.43

Reported log10 of TGI for COc1cc([C@@H]2c3cc4c(cc3[C@H](OC3OC5COC(c6ccccc6)OC5C(O)C3O)[C@H]3COC(=O)[C@H]23)OCO4)cc(OC)c1OC (stereo partly drawn) was 0.52

Value of log10 of TGI reported for the compound "N#CCCNCCN(CCN(C(=O)Nc1ccccc1)c1ccccc1)C(=O)Nc1ccccc1" is 1.74

Form field log10 of TGI, entry "CC[C@]1(O)C[C@@H]2CN(Cc3c([nH]c4ccccc34)[C@@](C(=O)OC)(c3cc4c(cc3OC)N(C)[C@H]3[C@@](O)(C(=O)OC)[C@H](OC(C)=O)[C@]5(CC)[C@@H]6C[C@@H]6CN6CC[C@]43[C@@H]65)C2)C1" : -1.02

get_value(item= COc1ccc2oc(S(=O)(=O)N3CC(CCl)c4ccc([N+](=O)[O-])cc43)cc2c1 (stereo not drawn) , readout=log10 of TGI) returns -0.61

# log10 of TGI of "O=C(Nc1nc2ncn(CCOC(=O)c3ccccc3)c2c(=O)[nH]1)c1ccccc1" = 0.92

----------
system: BT-549 breast; assay: NCI tumour cell line growth inhibition, 48 h
Documented TGI across a set of compounds
Dear colleague, please return just the value in µM, with no unit written.

>>> resultnumber("Cc1cc(NS(=O)(=O)c2ccc(NC(=O)c3ccc4nc5ccccc5c(Nc5ccc(S(=O)(=O)N=C(N)N)cc5)c4c3)cc2)no1")
46

Proceeding to the next compound to report its TGI.
// compound CC1=NN(c2cccc(Cl)c2)C2(C1)C(Cl)C(=O)N2c1nc2ccccc2s1 (stereo not given) , assay BT-549 breast, TGI value: 85.9

----------
system: SW-620 colon; assay: NCI tumour cell line growth inhibition, 48 h
The entries below are paired with their reported TGI.

>>> result("O=C1CCCC1C(=O)Nc1ccc2ccccc2c1 (stereo unspecified)")
"> 100 µM"
>>> result("O=C(Nc1ccccc1)c1cc2c(cc1Cl)Sc1nccn1S2(=O)=O")
"> 78.9 µM"
>>> result("C#Cc1cccc(NC(=O)Nc2ccccc2NC(=O)CCl)c1")
"45.2 µM"
>>> result("COc1ccc(CCNc2nc3ccccc3c3[nH]c4ccccc4c23)cc1OC")
"6.07 µM"
>>> result("Cc1cc(NS(=O)(=O)c2ccc(NC(=O)c3ccc4nc5ccccc5c(Nc5ccc(S(=O)(=O)N=C(N)N)cc5)c4c3)cc2)no1")
"48.5 µM"
>>> result("O=[N+]([O-])c1ccc2c(c1)nc(Cc1ccccc1)n2C[C@@H]1CCCN2CCCCC12 (stereo partly specified)")
"> 100 µM"

What the record says about "Cc1oc2nc1C(=O)NCc1nc(cs1)C(=O)N[C@H](C(C)C)c1nc(cs1)C(=O)N[C@H]2C" : TGI is > 100 µM

Summary for this molecule, O=C(CC(O)(c1ccccc1)c1ccc(Cl)cc1)NC(=O)c1ccccc1O (stereo unspecified) : TGI is > 100 µM

get_value(item= "Clc1ccc(Cl)c(N/N=C\c2c[nH]c3ccccc23)c1" , readout=TGI) returns 24.6 µM

The molecule listed as "O=C(Nc1nc2ncn(CCOC(=O)c3ccccc3)c2c(=O)[nH]1)c1ccccc1" shows TGI equal to > 100 µM

Form field TGI, entry "O=c1[nH]nc(-c2ccccc2)c(-c2ccccc2)c1-n1nc(-c2ccccc2)c2ccccc2c1=O" : > 100 µM

The recorded TGI for entry "N/C(=N\N=C\c1ccc2c(c1)OCO2)NO" equals > 100 µM

# molecule "CCOC(=O)C(C(=O)c1ccccc1-c1ccccc1C(=O)O)=P(c1ccccc1)(c1ccccc1)c1ccccc1" ; its TGI = > 100 µM

Query "O=C(c1ccccc1)c1nnn(Cc2cccc(Cl)c2)c1C(=O)c1ccccc1" yields TGI of > 100 µM

The reported TGI of the molecule "O=C(Nc1ccc(Cl)c(Cl)c1)Nc1ccc(Cl)c([N+](=O)[O-])c1" was 4.23 µM

----------
tested on: LOX IMVI melanoma; assay: NCI tumour cell line growth inhibition, 48 h
TGI values by entry

>>> result("Cn1ccnc1CCc1ccc(F)cc1F")
"> 100 µM"

TGI in this record for "COCn1c2ccc(OC(C)=O)cc2c2c(=O)oc(C)nc21" : > 100 µM

Please fill in: TGI reported for O=C1NN=C(c2ccc(Cl)cc2)CC1C1C(=O)N(c2ccccc2)N=C1c1ccccc1 (stereo unspecified) = 45.9 µM

// TGI lookup, molecule = "C=Nc1ccc([N+](=O)[O-])cc1" , result: > 100 µM

Memo: CC1(CCCC2(C)CCNC2=O)OCCO1 (stereo unspecified) , reported TGI: > 10 µM

The reported value for "CN(C)CCCn1c(Cc2ccccc2)nc2cc(C(F)(F)F)ccc21" in terms of TGI is 35.6 µM

Entry "C/C(O)=C/c1nc2ccccc2nc1/C=C(/C)O" — recorded TGI = 56.4 µM

Record COc1ccc([C@H]2c3cc(OC)c(OC)cc3C=C(C=O)C2CO)cc1OC (stereo partly specified) , field TGI: > 100 µM

TGI measured on "Cc1c(-c2ccccc2)c(C#N)c2nnn(-c3ccccc3)c(=O)n12" = > 100 µM

Notebook: "COc1c2occc2c(OC)c2c(=O)c(S(=O)(=O)NC(=O)Nc3ccc(Cl)cc3)coc12" , TGI read as > 10 µM

So for O=C(CC1Sc2ccccc2NC1=O)Nc1cccc(Cl)c1 (stereo unspecified) , the logged TGI turned out to be 48.2 µM

----------
system: KM12 colon; assay: NCI tumour cell line growth inhibition, 48 h
resultType: TGI (µM)
Could you give me the number in µM? Just the number is fine.

>>> resultnumber("[O-][n+]1onc2c3nn(-c4ccccc4)nc3ccc21")
48.5
>>> resultnumber("CCc1cc(C(N)=O)ccc1-n1nc(C(C)C)c2c(-n3cnc(-c4cnn(C)c4)c3)ccnc21")
6.28
>>> resultnumber("c1ccc2c(c1)c1c(n2CCOCCN2CCCCC2)CCCC1")
26.7
>>> resultnumber("CCCCC/C=C1/CC(CO)(COC(=O)CC(C(C)C)C(C)C)OC1=O (stereo unspecified)")
30.5
>>> resultnumber("C#Cc1cccc(NC(=O)Nc2ccccc2NC(=O)CCl)c1")
26.5
>>> resultnumber("COC(=O)C(=O)C(C#N)c1cccc2ccccc12 (stereo unspecified)")
99.7
>>> resultnumber("COc1ccc(NC(=O)c2ccc(NC3=C(Cl)C(=O)N(Cc4ccccc4)C3=O)cc2)cc1")
38.2
>>> resultnumber("CC(=O)Oc1c(-c2ccccc2)[nH]c2cc([N+](=O)[O-])c(/C(Cl)=C/c3ccccc3)cc12")
16.3
>>> resultnumber("O=C1CCC/C=C\\C[C@H]2C=C(Cl)C(=O)/C2=C/C[C@H](CCCCC(F)(F)F)OC(=O)CCC/C=C\\C[C@H]2C=C(Cl)C(=O)/C2=C/C[C@H](CCCCC(F)(F)F)O1")
1.38

Kindly note the recorded TGI for "N/C(=N\N=C\c1ccc2c(c1)OCO2)NO" , which is 63.6

----------
test system: SK-MEL-2 melanoma; assay: NCI tumour cell line growth inhibition, 48 h
resultType: TGI

>>> result("Cc1c(CNc2ccc(Cl)c(C(=O)NC(CC(=O)O)C(=O)O)c2)ccc2nc(N)nc(N)c12 (stereo not given)")
"> 1000 µM"
>>> result("C=CCOc1ccc(C2c3c([nH][nH]c3=O)CC(O)(OCC)C2C(=O)OCC)cc1OC (stereo not given)")
"> 100 µM"
>>> result("O=c1ccc2nc(-c3ccccc3)nn(-c3ccccc3)c-2c1")
"4.45 µM"
>>> result("O=C(O)CC(NC(=O)Nc1ccc([N+](=O)[O-])cc1)C(=O)Nc1ccc([N+](=O)[O-])cc1 (stereo not given)")
"> 100 µM"

Response field TGI (SK-MEL-2 melanoma) for item "O=C(CCc1cccc(O)c1)NCCc1cccc(O)c1" : > 100 µM

Measured on SK-MEL-2 melanoma, COc1ccc(C2SC(N)=Nc3c2c(C)nn3C(=O)c2ccncc2)cc1 (stereo not given) has a documented TGI of > 100 µM
